target: bovine heart mitochondrial complex I (Bos taurus, UniProt P03887+P17694+P42026); experiment: Complex I activity
Sequence (P03887 whole entry): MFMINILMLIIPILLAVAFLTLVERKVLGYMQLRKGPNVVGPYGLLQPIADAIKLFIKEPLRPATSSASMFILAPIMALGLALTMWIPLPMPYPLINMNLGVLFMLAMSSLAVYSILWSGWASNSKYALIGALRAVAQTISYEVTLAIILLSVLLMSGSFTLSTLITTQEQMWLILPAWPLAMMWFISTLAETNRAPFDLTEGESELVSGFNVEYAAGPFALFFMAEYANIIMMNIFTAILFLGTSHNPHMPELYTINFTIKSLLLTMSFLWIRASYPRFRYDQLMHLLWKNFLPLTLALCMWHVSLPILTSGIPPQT
Sequence (P42026 38-216): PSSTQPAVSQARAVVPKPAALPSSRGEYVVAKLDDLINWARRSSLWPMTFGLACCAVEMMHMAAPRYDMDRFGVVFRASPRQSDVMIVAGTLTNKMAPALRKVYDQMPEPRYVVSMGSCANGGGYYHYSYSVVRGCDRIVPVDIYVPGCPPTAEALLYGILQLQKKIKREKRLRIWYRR
Sequence (P17694 34-463): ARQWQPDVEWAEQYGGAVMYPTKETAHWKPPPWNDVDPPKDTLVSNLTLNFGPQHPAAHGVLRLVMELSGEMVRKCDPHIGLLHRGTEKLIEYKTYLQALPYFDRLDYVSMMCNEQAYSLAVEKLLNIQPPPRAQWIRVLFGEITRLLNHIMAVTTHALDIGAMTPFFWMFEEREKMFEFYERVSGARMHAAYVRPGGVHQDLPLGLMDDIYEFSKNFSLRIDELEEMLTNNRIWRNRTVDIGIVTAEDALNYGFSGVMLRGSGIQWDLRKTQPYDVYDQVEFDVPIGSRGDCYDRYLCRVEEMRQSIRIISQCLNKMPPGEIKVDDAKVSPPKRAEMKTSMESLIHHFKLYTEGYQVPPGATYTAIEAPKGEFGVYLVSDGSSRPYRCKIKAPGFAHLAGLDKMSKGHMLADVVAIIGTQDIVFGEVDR
reported.property: pIC50
pIC50 here: minus log base 10 of the concentration, concentration in moles per litre.

Could you share which pIC50 value was measured for CCCCCCCCCCCC[C@@H](O)[C@H]1CC[C@H]([C@H](O)CCCCCCCCCCNC(=O)c2ccsc2)O1 [JCI-20679] ?
6.77

Could you share which pIC50 value was measured for COc1cc2c(cc1OC)[C@@H]1C(=O)c3ccc4c(c3O[C@@H]1CO2)C=CC(C)(C)O4 [Deguelin, reference compound] ?
7.40
